tested on: Staphylococcus sp.; test: in vitro antibacterial evaluation, MIC by broth dilution; type: cell-based; settings: broth dilution, 18 hours at 35° C.; strain GC 4541
Quick rule for you: MIC Staphylococcus aureus (GC 4541) under 20 µg/mL gets label 1, anything else gets label 0.

• CC(C)CC(=O)OC1C(OC2C(CO)OC(Oc3ccc(CC4NC(=O)C(C(C)c5cccs5)NC(=O)CNC(=O)C(CO)NC(=O)C(C(O)C5CNC(=N)N5C5OC(CO)C(O)C(O)C5O)NC(=O)C(C(O)C5CNC(=N)N5)NC4=O)cc3)C(O)C2O)OC(CO)C(O)C1O (stereo not shown) [Example 265a] = label 1
• CC(=O)OCC1OC(OC2C(CO)OC(Oc3ccc(CC4NC(=O)C(C(C)c5ccccc5)NC(=O)CNC(=O)C(CO)NC(=O)C(C(O)C5CNC(=N)N5C5OC(CO)C(O)C(O)C5O)NC(=O)C(C(O)C5CNC(=N)N5)NC4=O)cc3)C(O)C2O)C(O)C(OC(=O)CCC(C)C)C1O (stereo not shown) [Example 270b] = label 1
• CC(C)CC(=O)OCC1OC(OC2C(CO)OC(Oc3ccc(CC4NC(=O)C(Cc5ccccc5)NC(=O)CNC(=O)C(CO)NC(=O)C(C(O)C5CNC(=N)N5C5OC(CO)C(O)C(O)C5O)NC(=O)C(C(O)C5CNC(=N)N5)NC4=O)cc3)C(O)C2O)C(O)C(O)C1O (stereo not shown) [Example 283c] = label 0
• CC(c1ccccc1)C1NC(=O)CNC(=O)C(CO)NC(=O)C(C(O)C2CNC(=N)N2C2OC(CO)C(O)C(O)C2O)NC(=O)C(C(O)C2CNC(=N)N2)NC(=O)C(Cc2ccc(OC3OC(CO)C(OC4OC(CO)C(O)C5OC(CC67CC8CC(CC(C8)C6)C7)OC45)C(O)C3O)cc2)NC1=O (stereo not shown) = label 1
• CC(c1ccccc1)C1NC(=O)CNC(=O)C(CO)NC(=O)C(C(O)C2CNC(=N)N2C2OC(CO)C(O)C(O)C2O)NC(=O)C(C(O)C2CNC(=N)N2)NC(=O)C(Cc2ccc(OC3OC(CO)C(OC4OC(CO)C(O)C(O)C4O)C(O)C3O)c(N)c2)NC1=O (stereo not shown) = label 0
• Cc1ccc(CC2OCC3OC(OC4C(CO)OC(Oc5ccc(CC6NC(=O)C(C(C)c7ccccc7)NC(=O)CNC(=O)C(CO)NC(=O)C(C(O)C7CNC(=N)N7C7OC(CO)C(O)C(O)C7O)NC(=O)C(C(O)C7CNC(=N)N7)NC6=O)cc5)C(O)C4O)C(O)C(O)C3O2)cc1 (stereo not shown) = label 1
• CC(C)=CCOc1cccc(C2OCC3OC(OC4C(CO)OC(Oc5ccc(CC6NC(=O)C(C(C)c7ccccc7)NC(=O)CNC(=O)C(CO)NC(=O)C(C(O)C7CNC(=N)N7C7OC(CO)C(O)C(O)C7O)NC(=O)C(C(O)C7CNC(=N)N7)NC6=O)cc5)C(O)C4O)C(O)C(O)C3O2)c1 (stereo not shown) = label 1
